Data provenance is paper PMC12246642.

Target: SARS-CoV-2 Mpro (Severe acute respiratory syndrome coronavirus 2, UniProt P0DTD1)
Assay: Covalent bond (adduct) formation kinetics by IR-MALDESI intact protein MS
Type: binding
Settings: citrate buffer, quenched with 200 μM compound 9, 10 μM compound and Mpro; only estimated for lack of early timepoints; Figure S5
Where a SMILES comes first, the peptide text is derived from it. [ ]: non-standard residue; d: D form. The star is where a group is joined. Met(O2) = CS(=O)(=O)CC[C@H](N)C(=O)O; Ala(cPr) = N[C@@H](CC1CC1)C(=O)O; Cbz = O=C(OCc1ccccc1)*
kobs (95 % CI) Quenched, Citrate: recorded values
measurement_name: kobs (95 % CI) Quenched, Citrate (Min -1)

- N#C[C@H](C[C@@H]1CCNC1=O)NC(=O)[C@H](CC1CC1)NC(=O)OCc1ccccc1: 0.34
- COc1cccc2[nH]c(C(=O)N[C@@H](CC3CC3)C(=O)N[C@H](C#N)C[C@@H]3CCNC3=O)cc12: 0.47
- O=C[C@H](C[C@@H]1CCNC1=O)NC(=O)[C@H](CC1CC1)NC(=O)OCc1ccccc1: 0.85
- COc1cccc2[nH]c(C(=O)N[C@@H](CC3CC3)C(=O)N[C@H](C=O)C[C@@H]3CCNC3=O)cc12: 0.31
- CS(=O)(=O)CC[C@@H](C=O)NC(=O)[C@H](CC1CC1)NC(=O)OCc1ccccc1 [Compound 4] (Cbz-[Ala(cPr)]-[Met(O2)]-aldehyde): 0.35
- COc1cccc2[nH]c(C(=O)N[C@@H](CC3CC3)C(=O)N[C@H](C=O)CCS(C)(=O)=O)cc12: 0.30
